test system: Fibroblast; assay: Multiplex assay against human fibroblast; type: toxicity, cell-based; conditions: 48 h, 1 µM, compound concentration 1 uM, number of replicates 2
recorded endpoint: Population Hoechst High Intensity Objects (%)
Answers are plain numbers, in %.

# count of solved cases: 3
# compound, reported value
records = [
    ("O=C(Nc1ccnc(NC(=O)C2CC2)c1)c1c(Cl)cccc1Cl", 0),
    ("O=C1Nc2ccc(C(=O)c3ccco3)cc2C1=Cc1cc(Cl)c(O)c(Cl)c1 [GW406108X]", 0),
    ("NC(=O)c1ccc(-c2nc(-c3ccc4c(c3)OCCO4)c(-c3ccccn3)[nH]2)cc1", 0),
]

Batch request: Population Hoechst High Intensity Objects (%) per item, same order as input.
1. CN(C)CCCNc1ccnc(Nc2cccc(Cl)c2)n1
2. CSc1cc2c(cc1C(F)(F)F)N(C(=O)Nc1cccnc1)CC2
3. COc1cc(N(C)c2ccnc3ccc(C(F)(F)F)cc23)cc(OC)c1OC
4. COc1ccc2cc(S(=O)(=O)N[C@H](CC(=O)N[C@H](Cc3ccc(CN4[C@H](C)CCC[C@@H]4C)cc3)C(=O)N(C)C(C)C)c3ccc4c(c3)OCO4)ccc2c1.Cl
5. CC1=C(C)C(=O)C(C(CCCCCC(=O)O)c2ccccc2)=C(C)C1=O (stereo not drawn) [SERATRODAST]
6. C=CC(=O)Nc1cccc(C)c1Nc1ncc2cc(-c3c(Cl)c(OC)cc(OC)c3Cl)ccc2n1
7. CC(C)N1CCN(Cc2cnc(-c3cc(-c4cccc5[nH]ccc45)cc4[nH]ncc34)o2)CC1 [NEMIRALISIB]
8. CC(C)c1cc(-c2ccc(F)c3ccccc23)nc(N)n1

[0, 0, 0, 0, 0, 0, 0, 0]

Batch request: Population Hoechst High Intensity Objects (%) per item, same order as input.
1. Cc1ccc2c(N)c(C(=O)NC3CCc4cc(N5CC6CCC(C5)N6)ccc4C3)sc2n1.O=CO (stereo not drawn)
2. CC(C)NC(=O)[C@H]1CCC[C@H]1Nc1nc(Nc2ccc(C(=O)N(C)C3CCN(C)CC3)cc2)ncc1Cl
3. CNS(=O)(=O)c1ccc(N(C)C)c(Nc2ncnc3cc(OC)c(OC)cc23)c1
4. CN1CCc2cc(Nc3ncc(C(F)(F)F)c(NCc4cc[nH]n4)n3)ccc2C1

1: 0; 2: 0; 3: 0; 4: 0

Batch request: Population Hoechst High Intensity Objects (%) per item, same order as input.
1. COc1ccc(CC[C@@H](OC(=O)[C@@H]2CCCCN2C(=O)[C@H](c2cc(OC)c(OC)c(OC)c2)C2CCCCC2)c2cccc(OCCN3CCOCC3)c2)cc1OC
2. O=C1NC(=O)C(c2ccccc2[N+](=O)[O-])=C1Nc1ccc(O)c(Cl)c1
3. COc1ccncc1C(=O)NC(=O)Nc1ccc(-c2ccccc2)c(C(F)(F)F)c1

1. 0
2. 0
3. 0

====

test system: HEK-293T; assay: Multiplex assay against HEK293T; format: toxicity, cell-based; settings: human, 24 h, 1 µM, compound concentration 1 uM, number of replicates 2
Kindly supply the reported Population Pyknosed Nuclei (%) values for the records listed here.
Give bare numbers, in %.

# count of solved cases: 4
# structure, reported value
rows = [
    ("c1ccc2c(-c3coc4cc(-c5ccc(N6CCNCC6)cc5)cnc34)ccnc2c1", 9),
    ("COc1ccccc1-c1cc(Nc2cccc(CS(N)(=O)=O)c2)ncn1", 7),
    ("COc1ccc(CC[C@@H](OC(=O)[C@@H]2CCCCN2C(=O)[C@H](c2cc(OC)c(OC)c(OC)c2)C2CCCCC2)c2cccc(OCCN3CCOCC3)c2)cc1OC", 8),
    ("COc1ccncc1C(=O)NC(=O)Nc1ccc(-c2ccccc2)c(C(F)(F)F)c1", 7),
]

Could you now consider this next compound?
Look up Population Pyknosed Nuclei (%): "CNS(=O)(=O)c1ccc(N(C)C)c(Nc2ncnc3cc(OC)c(OC)cc23)c1" 8
